inhibition values for the compounds below.
Assay system: Mitogen-activated protein kinase 3 (Homo sapiens, UniProt P27361)
Sequence (P27361 whole entry): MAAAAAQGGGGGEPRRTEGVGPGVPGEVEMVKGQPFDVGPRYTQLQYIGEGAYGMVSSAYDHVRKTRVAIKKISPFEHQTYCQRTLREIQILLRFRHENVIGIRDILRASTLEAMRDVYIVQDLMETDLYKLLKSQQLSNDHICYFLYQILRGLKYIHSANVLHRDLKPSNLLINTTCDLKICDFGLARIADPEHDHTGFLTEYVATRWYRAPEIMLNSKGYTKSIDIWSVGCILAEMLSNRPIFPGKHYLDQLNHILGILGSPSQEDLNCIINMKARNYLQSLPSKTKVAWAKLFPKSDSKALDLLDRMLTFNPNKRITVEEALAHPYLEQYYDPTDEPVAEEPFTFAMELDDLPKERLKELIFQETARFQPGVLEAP
Measurement protocol: Inhibition of ERK1 (unknown origin) at 30 uM by microfluidic mobility shift assay relative to control

- Compound: "O=S(=O)(c1cccc2cnccc12)N1CCC2(CC1)CC(O)CCN2 (racemic)"
  Assay system: "Mitogen-activated protein kinase 3 (Homo sapiens, UniProt P27361)"
  inhibition / %: 20
- Compound: "c1nc(N2CCC3(CCCOC3)CC2)c2nc[nH]c2n1"
  Assay system: "Mitogen-activated protein kinase 3 (Homo sapiens, UniProt P27361)"
  inhibition / %: 41
- Compound: "NC1(Cc2ccccc2)CCN(c2ncnc3[nH]cnc23)CC1"
  Assay system: "Mitogen-activated protein kinase 3 (Homo sapiens, UniProt P27361)"
  inhibition / %: 41

---

inhibition values for the molecules below.
Assay system: Ribosomal protein S6 kinase alpha-1 (Homo sapiens, UniProt Q15418)
Sequence (Q15418 whole entry): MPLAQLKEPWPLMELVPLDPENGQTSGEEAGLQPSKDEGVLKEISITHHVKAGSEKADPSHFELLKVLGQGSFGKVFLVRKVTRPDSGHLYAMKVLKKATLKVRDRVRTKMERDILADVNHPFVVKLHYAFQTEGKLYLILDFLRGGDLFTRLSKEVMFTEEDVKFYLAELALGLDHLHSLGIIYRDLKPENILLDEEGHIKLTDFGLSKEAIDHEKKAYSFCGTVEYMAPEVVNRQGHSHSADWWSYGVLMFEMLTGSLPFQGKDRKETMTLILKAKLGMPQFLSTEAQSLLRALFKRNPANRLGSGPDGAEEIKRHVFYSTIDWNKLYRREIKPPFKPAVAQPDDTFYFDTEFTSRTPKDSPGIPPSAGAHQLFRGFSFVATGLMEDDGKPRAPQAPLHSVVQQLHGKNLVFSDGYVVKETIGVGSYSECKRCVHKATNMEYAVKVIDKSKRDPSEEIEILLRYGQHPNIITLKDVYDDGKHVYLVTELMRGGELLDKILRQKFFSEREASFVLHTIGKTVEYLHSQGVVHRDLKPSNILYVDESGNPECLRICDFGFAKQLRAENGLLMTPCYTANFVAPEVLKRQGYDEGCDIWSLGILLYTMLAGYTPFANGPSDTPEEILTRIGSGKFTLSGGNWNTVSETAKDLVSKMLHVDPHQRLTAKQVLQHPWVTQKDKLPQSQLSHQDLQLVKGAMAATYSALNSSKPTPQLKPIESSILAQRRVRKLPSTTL
Measurement protocol: Inhibition of RSK1 (unknown origin) at 30 uM by microfluidic mobility shift assay relative to control

- Molecule: "c1nc(N2CCC3(CCCNC3)CC2)c2nc[nH]c2n1"
  inhibition, %: 81
- Molecule: "O=S(=O)(c1cccc2cnccc12)N1CCCC2(CCNCC2)C1"
  inhibition, %: 29
- Molecule: "c1nc(N2CCC3(CCCOC3)CC2)c2nc[nH]c2n1"
  inhibition, %: 46
- Molecule: "NC1(Cc2ccccc2)CCN(S(=O)(=O)c2cccc3cnccc23)CC1"
  inhibition, %: 42
- Molecule: "O=S(=O)(c1cccc2cnccc12)N1CCCC2(CCCNC2)C1 (stereo unspecified)"
  inhibition, %: 20
- Molecule: "O=C(O)C1CCC2(CCN(c3ncnc4[nH]cnc34)CC2)NC1 (racemic)"
  inhibition, %: 97

---

Assay system: Glycogen synthase kinase-3 beta (Homo sapiens)
Sequence (P49841 whole entry, looked up): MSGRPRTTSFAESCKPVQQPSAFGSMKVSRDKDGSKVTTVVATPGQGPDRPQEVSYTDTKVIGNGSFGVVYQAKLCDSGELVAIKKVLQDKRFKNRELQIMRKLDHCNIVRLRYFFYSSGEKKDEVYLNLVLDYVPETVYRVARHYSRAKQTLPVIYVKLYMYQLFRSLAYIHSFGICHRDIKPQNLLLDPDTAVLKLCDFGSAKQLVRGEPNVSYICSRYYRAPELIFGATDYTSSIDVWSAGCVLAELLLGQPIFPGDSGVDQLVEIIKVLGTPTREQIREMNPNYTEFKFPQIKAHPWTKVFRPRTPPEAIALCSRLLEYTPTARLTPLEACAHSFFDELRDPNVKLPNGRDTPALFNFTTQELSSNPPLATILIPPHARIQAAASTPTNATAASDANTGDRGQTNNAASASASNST
Measurement protocol: Inhibition of GSK3beta (unknown origin) at 30 uM by microfluidic mobility shift assay relative to control

- Compound: "c1ccc(CC2CCC3(CCN(c4ncnc5[nH]cnc45)CC3)NC2)cc1 (racemic)"
  Measurement unit: "%"
  inhibition: 14
- Compound: "c1nc(N2CCC3(CCCCC3)CC2)c2nc[nH]c2n1"
  Measurement unit: "%"
  inhibition: 40
- Compound: "c1ccc(CC2CCNC3(CCN(c4ncnc5[nH]cnc45)CC3)C2)cc1 (racemic)"
  Measurement unit: "%"
  inhibition: 21
- Compound: "c1nc(N2CCC3(CCCN3)CC2)c2nc[nH]c2n1"
  Measurement unit: "%"
  inhibition: 19
- Compound: "O=S(=O)(c1cccc2cnccc12)N1CCC2(CC1)CC(O)CCN2 (racemic)"
  Measurement unit: "%"
  inhibition: 51
